Test system: K4 kissing-loop RNA reporter;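 further: bound reporter read as fluorescence of individual clusters on recovered sequencing chips by microscopy, with normalized cluster intensities fitted with a binding model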
Assay: apparent KD of K4 kissing-loop reporter; higher = weaker reporter binding
Details: Eterna round: R107; input ligand: theophylline 20 uM
Assay metric: apparent KD of K4 kissing-loop reporter

Chain sequence	Experimental system	apparent KD of K4 kissing-loop reporter
GGAAUGCUGUAAGGAUAUCUCGGACGGUUACUCCGUUUCUCGCGUGUAAGAAUCUGAGUGAUGUUUAGAGAAGGUACGCUGGUUA [theeternabot_exclusion_KL_FMN_B_21]	K4 kissing-loop RNA reporter	225 nM
GGUAGCAUGGCGGCCGCCACUCUAUGCGAGUGAUGUUCGCAGCUCAAAGAGCACCCGGGAACAGAGAGGACCGGGCCAUGCUACC	K4 kissing-loop RNA reporter	302 nM
UAAGAAUAGCAUGCAGUGAUGUUGCAUGUCCGAGGACCGGUACGGCCGCCACUCGAGUCCUCGAACAUGCACCGAGGAAUAACAA [#19 K4 Tryptophan A Same State]	K4 kissing-loop RNA reporter	107 nM
CCCUAUAUAUGCAGUGAUGUUGCAACUGAUACCAGUAUCGAAAGAUACCCUUGGCAGCGGAAAACCGCUACGUAAUUUAAUAGGG [Ex Theophylline A K4 21]	K4 kissing-loop RNA reporter	461 nM
UGGAGUUGACGAAAAGUCAACUCCUGAGAAGGAGCGGACGAAAGUCCAGGUAGGUCGCUCACUACCAGUGAUGUUGGUACUUAAA [#OpenEnded 4]	K4 kissing-loop RNA reporter	228 nM

Then there is this sequence:
Query UGUAUGUGAUUUGAUACCAGACCAGCUGGUGGUGUAUGAGUGAUGUUCAUGCUGGUUUGGGUCCCUUGGCAGCAAAUCGCAUACU [KL-SSTheoB29] yields apparent KD of K4 kissing-loop reporter of 7.6 nM

----------
Tested on: MS2 coat protein
Test: apparent KD of MS2 coat protein; designed switch direction (-1 OFF switch, 1 ON switch): -1; higher = weaker reporter binding
Conditions: input ligand: none
Assay metric: apparent KD of MS2 coat protein (nM)
Numbers only, in nM.

Chain sequence	Measurement unit	Quantitative result
UUUUCCUGGCAAGGAUAUCCUGUGCGGUUCCGGCUCGUGUCUGUUACAUGAGGAUCACCCAUGUGGGAGAAGGUGCCUGUGGUU [Design 89] (Eterna round: R96, puzzle: Exclusion NG 2)	nM	41.7
GCAGCAUAGUAAACAUACUGUUACAUGAGGAUCACCCAUGUACAGGAUAUGGUCUGGAUUACAGGCCAGAAGGGUACAAGCUGC [Eli exng3 - 023] (Eterna round: R96, puzzle: Exclusion NG 3)	nM	12.8
AUAUUGCGAGGAUAUACAUGAGGAUCACCCAUGUGGUAGUAGAUACGGUAGGGCUAGUGUAGAAGGUGUUAUGA [EX3 #14] (Eterna round: R97, puzzle: Exclusion 3)	nM	172
AAGAGGCGGACAGGAUAUGGGAAAUUGUAAAGACCAGAAGGGUCGGCGAAAAUACAUGAGGAUCACCCAUGUGAAUCAUGACCA [AK ExNG1-7] (Eterna round: R96, puzzle: Exclusion NG 1)	nM	42.5
AAGGGACAUGAGGAUCACCCAUGUCAGGAUAUUAGUGUGAGUCACCUUGUGAAUACACUAAGAAGGGAUAGAAA [Eternabot (Original) Solution 38] (Eterna round: R97, puzzle: Exclusion 1)	nM	84.5

Quick one: give me apparent KD of MS2 coat protein for each item below, same order please.
1. AAUAACAAGCCGAUCCUCGACAUGAGGAUCACCCAUGUGCUCGUCUUGUAAAGUACUAUCACGAAAGUGAUAGUACA (Eterna round: R97, puzzle: Sensor, turn-off variant 1)
2. GGAUCUACUGAGGAUAUUAUAUCACCCGACUGAUAAGAAGGCAGUACAUGAGGAUCACCCAUGUGGGUAGCCAC [Polaris7] (Eterna round: R97, puzzle: Exclusion 6)

419
99.4

Quick one: give me apparent KD of MS2 coat protein for each item below, same order please.
1. UCUCGCGGGCAAGGAUAUCCUACAUUGUUCUGGCCCGGGCAUGUUACAUGAGGAUCACCCAUGUGGGAGAAGGUGCGCCAGGGC [Design 35] (Eterna round: R96, puzzle: Exclusion NG 2)
2. UCACUACCGCAAGGAUAUGUUGUCUGACACGCUGCGUGACAUGAGGAUCACCCAUGUGCUAGUUCGCAGAAGGUGCGGAAUGUG [Eternabot solution 34] (Eterna round: R96, puzzle: Exclusion NG 2)
3. AAGGGUACUUUCGGAACGACAUGAGGAUCACCCAUGUAUACUGAGGAUAUCCACUACUAAGGACGGGAGAAGGCAGUGUACUGU [Ex NG3 #79] (Eterna round: R96, puzzle: Exclusion NG 3)

30.3
17.1
16.6

Quick one: give me apparent KD of MS2 coat protein for each item below, same order please.
1. UAGUUACAUGAGGAUCACCCAUGUGAGGAUAUGAGUCAGUCACGGUGACGUGGCUGACUCAGAAGGCACAAUGG [Mat - Exclusion 1 - JL Mod - D45] (Eterna round: R97, puzzle: Exclusion 1)
2. GUAUAGCUAAAGGAUAUUCUCCGACGACGUGAAGAAGAAGGUUGGACAUGAGGAUCACCCAUGUGUACAGGAUA [Eternabot (L2) Solution 62] (Eterna round: R97, puzzle: Exclusion 6)
3. GGCACACAUGAGGAUCACCCAUGUGAGGAUAUUAGGCGAUCGUCGAUAGACGAUAGCCUGAGAAGGCACAUGCC [Mat - Exclusion 1 - Eli Mod - D12] (Eterna round: R97, puzzle: Exclusion 1)
4. GAUCCACAUGAGGAUCACCCAUGUGAGGAUAUGAUACUAUGUACUUCGGUACAUAGUAUCAGAAGGCACAGGUC [Ex1-3: 56] (Eterna round: R96, puzzle: Exclusion 1)
5. CGAUGCUCGAGUCGACAUGAGGAUCACCCAUGUAGAGUUAGUGAGGAUAUCGGAGACACAUAGUAUGAGAAGGCGCGAACCUGA [Ex NG3 #17] (Eterna round: R96, puzzle: Exclusion NG 3)
6. GGGCCUUUGGUCAGGAUAUCUUAUUCCAGACUAUAGGAGAAGGGACUUGAGGAUCACCCAAGUAAAAUGAAAAC [Dizadi] (Eterna round: R97, puzzle: Brourd's mod of Exclusion 4)
7. UGUUGUUACGCAGGAUAUUGUCAACAGGCAAUAGGAUAUCCGAAAGGAGAAGGAUCGCCAACAGGCGAGAAGGGCGGGUUAACA [pwkr exNG2 2xF7 2xFMN.1] (Eterna round: R96, puzzle: Exclusion NG 2)

1: 256; 2: 21.8; 3: 20.6; 4: 52.9; 5: 18.8; 6: 24; 7: 2630

Quick one: give me apparent KD of MS2 coat protein for each item below, same order please.
1. AGUGUGUGGCAGGAUAUGCGAUUUAUAGGUGAAGCAGAAGGGUCUACAUGAGGAUCACCCAUGUGUGCGGUUGA [Ex6 #21] (Eterna round: R97, puzzle: Exclusion 6)
2. UAUCUAUGAGGAUAUCAUAGUAGUUACAUGAGGAUCACCCAUGUCAUGACAGAACUGGGAUGAGAAGGCAUUCGUU [Eternabot (L2) Solution 73] (Eterna round: R97, puzzle: Exclusion 5)

160
447

----------
Test system: MS2 coat protein
Experiment: apparent KD of MS2 coat protein, switch OFF state (with FMN for OFF switches, without FMN for ON switches); designed switch direction (-1 OFF switch, 1 ON switch): -1; higher = weaker reporter binding
Settings: FMN input: 0 or 200 uM; Eterna round: R93 (includes R88 designs)
For each of the sequences below, state its apparent KD of MS2 coat protein.
Give bare numbers, in nM.

// solved cases for apparent KD of MS2 coat protein follow
> print(dat)
                             chain.sequence  measurement.unit  quantitative.result
1  AAAAAACAUGAGGAUCACCCAUGUAAGGAUAUGCUGAAAAACACGGAAAAAACGUGCAGCAGAAGGUACAAAGA [Mat - Exclusion 1 - Eli mod - D96]                nM                 39.9
2  CUGGAGUCAGGAUAUACGAACAUGUCGCCAGAUGUCAAGGUACAUGAGGAUCACCCAUGUAGAAGGGAGGAGAA [salish99-Ex2-33]                nM                 84.8
3  CUCAAGUAAGGAUAUGGAAGAAAAGAAGAGAAAGAAAAGAACCAGAAGGUACAUGAGGAUCACCCAUGUAAGAA [EteRNA is fun!]                nM                 24.6
4  CUCAAGUGAGGAUAUUAAAGAAAAGAAGAGAAAGAAAAGAAUAAGAAGGCACAUGAGGAUCACCCAUGUAAGAA [EteRNA is fun!]                nM                   33
5  AGAAAACAUGAGGAUCACCCAUGUCAGGAUAUCUAAAAGAAAAGAAAAGAAAGAAGAAGGAGAAGGGACAAGAA [Djoser]                nM                 21.8
6  GAAAACAGAGGAUAUACGAAAUUGACACGAAAAGUGCAGGGACAUGAGGAUCACCCAUGUAGAAGGCUGAAGAA [Meechl MS2... 60% 1]                nM                 48.2
7  AAAAUACAUGAGGAUCACCCAUGUGAGGAUAUGCAAAACCCAUAUAAAAAGGGAAAAAGCAGAAGGCACAAAAA [wbt round 1 mod 15]                nM                 52.9
8  AGGAAACAUGAGGAUCACCCAUGUUAGGAUAUGAACGAAAAUAAAUAAAAAUAAAAGUUCAGAAGGGACAAAAA [66%, Wbt, 19]                nM                 39.6

Query AGGUAGUCAGGAUAUACAAACAUGUCAAAAGACGUGAAAAAACAUGAGGAUCACCCAUGUAGAAGGGACUACCA [Mat - Exclusion 2 - JL mod - D21] yields apparent KD of MS2 coat protein of 16.3

Values were extracted from the supplement of paper PMC9170038.
